- Test system: CASKI
- assay-method-text: Primary qHTS to identify gynecologic anti-cancer compounds using libraries of approved drugs and bioactive compounds (AID 1345084); note: nearly all actives have a fitted effect of over 55% in size
- details: Gynecologic cancer cell panel viability, ATPlite luminescence, 48 h; series mostly up to 57.5 µM
Results filed as inconclusive are left out. Activity calls are given as the source filed them. Calls come from the whole dose curve; as a rule, active = well fitted cell-killing curve with a large enough effect; inconclusive = small, poorly fitted or top-dose-only effect, or effect the other way; inactive = flat fitted curve, though single readings scatter.
// allowed return values: active, inactive

Prompt line: What is the recorded call for this compound in the test? CC(Cc1ccccc1)(NC(=O)CN)c1ccccc1 (stereo unspecified)
Response line: inactive

Prompt line: What is the recorded call for this compound in the test? CC(C)(CO)[C@@H](O)C(=O)NCCCO
Response line: inactive

Prompt line: What is the recorded call for this compound in the test? CCCCCCc1ccc(O)cc1O
Response line: inactive

Shift focus to the following entry.
Prompt line: What is the recorded call for this compound in the test? CC1(C)OC[C@@H](COC(=O)CCc2ccc(OC[C@@H](O)CNCCNC(=O)N3CCOCC3)cc2)O1
Response line: inactive
